- MEASUREMENT TARGET: T-type calcium channel (Homo sapiens, UniProt O95180)
- TEST PROTOCOL: T-type channel blocking, FLIPR data (Table 6)
- Assay type: cell-based
- EXPERIMENTAL CONTEXT: CAv3.2, ratio closed/inactivated IC50
VALUE TYPE: CAv3.2 IC50 Ratio closed/inact.
Just the number, please, no unit attached.

[
  {
    "COMPOUND": "CC(C)([C@H]1C[C@H](Nc2ccnc(C(F)(F)F)n2)C1)S(=O)(=O)c1cccc(OC(F)(F)F)c1",
    "CAv3.2 IC50 Ratio closed/inact.": 1.2
  },
  {
    "COMPOUND": "CC(C)([C@H]1C[C@@H](NC(=O)c2cc(C(F)(F)F)n[nH]2)C1)S(=O)(=O)c1cccc(OC(F)(F)F)c1",
    "CAv3.2 IC50 Ratio closed/inact.": 1
  },
  {
    "COMPOUND": "CC(C)(C[C@H]1C[C@H](NC(=O)c2ccc(OCC(F)(F)F)nc2)C1)S(=O)(=O)c1cccc(C(F)(F)F)c1",
    "CAv3.2 IC50 Ratio closed/inact.": 2.7
  },
  {
    "COMPOUND": "O=C(NC[C@H]1C[C@H](S(=O)(=O)c2cc(F)cc(C(F)(F)F)c2)C1)c1cnc(C(F)(F)F)nc1",
    "CAv3.2 IC50 Ratio closed/inact.": 1
  }
]

Please look at this compound and report its CAv3.2 IC50 Ratio closed/inact.: CC(C)([C@H]1C[C@@H](NC(=O)c2ccc(Cl)cc2S(C)(=O)=O)C1)S(=O)(=O)c1cccc(C(F)(F)F)c1
1

Please look at this compound and report its CAv3.2 IC50 Ratio closed/inact.: CC(C)([C@H]1C[C@@H](NC(=O)c2ccc(Cl)cn2)C1)S(=O)(=O)c1cccc(C(F)(F)F)c1
1.5

Please look at this compound and report its CAv3.2 IC50 Ratio closed/inact.: CC(C)([C@H]1C[C@H](NC(=O)c2ncc(C(F)(F)F)cc2S(C)(=O)=O)C1)S(=O)(=O)c1cccc(OC(F)(F)F)c1
1

Please look at this compound and report its CAv3.2 IC50 Ratio closed/inact.: CC(C)(C[C@H]1C[C@H](NC(=O)c2cnc(C(F)(F)F)nc2)C1)S(=O)(=O)c1cccc(C(F)(F)F)c1
2

Please look at this compound and report its CAv3.2 IC50 Ratio closed/inact.: CC(C)([C@H]1C[C@H](NC(=O)c2ccc(Cl)c(F)c2)C1)S(=O)(=O)c1cc(F)cc(C(F)(F)F)c1
2.8

Please look at this compound and report its CAv3.2 IC50 Ratio closed/inact.: CC(C)([C@H]1C[C@H](NS(=O)(=O)c2ccc(F)c(C(F)(F)F)c2)C1)S(=O)(=O)c1cc(F)cc(C(F)(F)F)c1
3.9

Please look at this compound and report its CAv3.2 IC50 Ratio closed/inact.: CC(C)([C@H]1C[C@@H](NC(=O)c2ccc(C(F)(F)F)cc2S(C)(=O)=O)C1)S(=O)(=O)c1cccc(OC(F)(F)F)c1
1.2

Please look at this compound and report its CAv3.2 IC50 Ratio closed/inact.: CC(C)S(=O)(=O)c1cc(C(F)(F)F)cnc1C(=O)N[C@H]1C[C@H](CC(C)(C)S(=O)(=O)c2cccc(C(F)(F)F)c2)C1
1.5

Please look at this compound and report its CAv3.2 IC50 Ratio closed/inact.: CC(C)([C@H]1C[C@@H](NS(=O)(=O)c2ccc(Cl)c(F)c2)C1)S(=O)(=O)c1cc(F)cc(C(F)(F)F)c1
2

Please look at this compound and report its CAv3.2 IC50 Ratio closed/inact.: CC(C)(C[C@H]1C[C@@H](NC(=O)c2ncc(C(F)(F)F)cc2S(C)(=O)=O)C1)S(=O)(=O)c1cccc(C(F)(F)F)c1
1

Please look at this compound and report its CAv3.2 IC50 Ratio closed/inact.: CC(C)([C@H]1C[C@@H](NC(=O)c2ccc(Cl)c(F)c2)C1)S(=O)(=O)c1cccc(OC(F)(F)F)c1
0.8

Please look at this compound and report its CAv3.2 IC50 Ratio closed/inact.: CC(C)([C@H]1C[C@H](NC(=O)c2ccc(C(F)(F)F)cc2)C1)S(=O)(=O)c1cccc(C(F)(F)F)c1
1

Please look at this compound and report its CAv3.2 IC50 Ratio closed/inact.: CC(C)(C[C@H]1C[C@H](NC(=O)c2ccc(Cl)cn2)C1)S(=O)(=O)c1cccc(C(F)(F)F)c1
1.9

Please look at this compound and report its CAv3.2 IC50 Ratio closed/inact.: CC(C)([C@H]1C[C@@H](NS(=O)(=O)c2ccc(F)c(Cl)c2)C1)S(=O)(=O)c1cccc(C(F)(F)F)c1
1.2

Please look at this compound and report its CAv3.2 IC50 Ratio closed/inact.: CC(C)([C@H]1C[C@@H](NC(=O)c2ccc(C(F)(F)F)cc2)C1)S(=O)(=O)c1cccc(C(F)(F)F)c1
4.7

Please look at this compound and report its CAv3.2 IC50 Ratio closed/inact.: CC(C)([C@H]1C[C@@H](NC(=O)c2ccc(F)c(Cl)c2)C1)S(=O)(=O)c1cc(F)cc(C(F)(F)F)c1
3.1

###

- MEASUREMENT TARGET: CAv1.2 (Homo sapiens, UniProt Q13936)
- Sequence (Q13936 whole entry): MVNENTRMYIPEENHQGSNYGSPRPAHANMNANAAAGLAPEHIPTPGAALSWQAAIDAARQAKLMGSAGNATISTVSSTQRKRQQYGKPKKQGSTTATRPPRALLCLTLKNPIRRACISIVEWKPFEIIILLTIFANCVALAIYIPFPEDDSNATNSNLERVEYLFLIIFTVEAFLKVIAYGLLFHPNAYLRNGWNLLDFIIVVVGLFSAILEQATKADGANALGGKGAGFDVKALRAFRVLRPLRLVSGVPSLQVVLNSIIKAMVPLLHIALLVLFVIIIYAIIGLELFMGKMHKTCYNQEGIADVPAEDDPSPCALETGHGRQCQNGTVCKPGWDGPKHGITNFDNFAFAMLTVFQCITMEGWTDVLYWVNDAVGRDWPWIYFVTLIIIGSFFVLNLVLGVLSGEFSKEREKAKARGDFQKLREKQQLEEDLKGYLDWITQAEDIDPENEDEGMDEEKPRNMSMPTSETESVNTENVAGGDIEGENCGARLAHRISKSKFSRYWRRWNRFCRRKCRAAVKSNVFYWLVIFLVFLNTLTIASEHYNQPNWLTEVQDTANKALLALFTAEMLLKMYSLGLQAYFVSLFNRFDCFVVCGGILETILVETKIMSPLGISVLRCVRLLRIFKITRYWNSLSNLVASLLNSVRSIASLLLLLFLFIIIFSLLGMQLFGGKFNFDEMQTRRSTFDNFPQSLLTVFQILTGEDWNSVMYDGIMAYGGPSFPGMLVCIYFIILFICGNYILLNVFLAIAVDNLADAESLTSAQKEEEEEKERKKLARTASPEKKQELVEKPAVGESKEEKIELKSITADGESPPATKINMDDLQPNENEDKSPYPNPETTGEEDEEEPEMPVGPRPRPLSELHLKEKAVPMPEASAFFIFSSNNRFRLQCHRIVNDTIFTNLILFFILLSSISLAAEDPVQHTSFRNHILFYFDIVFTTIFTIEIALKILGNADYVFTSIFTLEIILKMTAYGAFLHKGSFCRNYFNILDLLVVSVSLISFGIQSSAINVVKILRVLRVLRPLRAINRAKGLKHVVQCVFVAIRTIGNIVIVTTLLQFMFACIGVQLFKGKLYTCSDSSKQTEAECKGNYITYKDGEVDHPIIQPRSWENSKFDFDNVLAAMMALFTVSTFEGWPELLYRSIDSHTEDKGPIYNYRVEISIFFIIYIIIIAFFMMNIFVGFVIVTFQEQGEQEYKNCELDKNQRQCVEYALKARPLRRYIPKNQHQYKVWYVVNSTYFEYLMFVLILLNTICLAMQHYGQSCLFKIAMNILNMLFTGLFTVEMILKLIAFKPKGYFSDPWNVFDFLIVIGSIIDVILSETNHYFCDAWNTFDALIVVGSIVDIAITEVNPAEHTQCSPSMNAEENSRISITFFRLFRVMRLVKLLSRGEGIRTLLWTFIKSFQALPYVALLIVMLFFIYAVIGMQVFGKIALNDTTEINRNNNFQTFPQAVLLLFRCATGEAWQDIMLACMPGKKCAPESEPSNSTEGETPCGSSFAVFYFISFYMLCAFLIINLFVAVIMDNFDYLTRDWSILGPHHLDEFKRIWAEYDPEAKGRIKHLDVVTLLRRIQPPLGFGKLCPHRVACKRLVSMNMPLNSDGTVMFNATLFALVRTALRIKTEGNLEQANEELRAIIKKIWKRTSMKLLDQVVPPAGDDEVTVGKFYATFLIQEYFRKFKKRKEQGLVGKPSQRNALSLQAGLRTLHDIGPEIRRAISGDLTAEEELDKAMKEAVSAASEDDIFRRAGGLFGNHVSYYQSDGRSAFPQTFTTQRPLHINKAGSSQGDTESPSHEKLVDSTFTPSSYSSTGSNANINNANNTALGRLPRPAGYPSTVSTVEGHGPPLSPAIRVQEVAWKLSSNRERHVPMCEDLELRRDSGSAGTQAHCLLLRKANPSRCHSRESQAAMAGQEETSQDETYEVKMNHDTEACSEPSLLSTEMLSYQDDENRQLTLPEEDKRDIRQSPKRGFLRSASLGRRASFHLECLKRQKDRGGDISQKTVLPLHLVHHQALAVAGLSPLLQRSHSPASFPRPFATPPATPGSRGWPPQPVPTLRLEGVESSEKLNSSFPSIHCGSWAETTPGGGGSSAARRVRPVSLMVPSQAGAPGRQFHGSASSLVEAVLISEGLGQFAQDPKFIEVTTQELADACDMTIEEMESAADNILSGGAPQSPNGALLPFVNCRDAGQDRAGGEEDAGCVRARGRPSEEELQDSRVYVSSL
- Sequence (P54289 25-1103 partner): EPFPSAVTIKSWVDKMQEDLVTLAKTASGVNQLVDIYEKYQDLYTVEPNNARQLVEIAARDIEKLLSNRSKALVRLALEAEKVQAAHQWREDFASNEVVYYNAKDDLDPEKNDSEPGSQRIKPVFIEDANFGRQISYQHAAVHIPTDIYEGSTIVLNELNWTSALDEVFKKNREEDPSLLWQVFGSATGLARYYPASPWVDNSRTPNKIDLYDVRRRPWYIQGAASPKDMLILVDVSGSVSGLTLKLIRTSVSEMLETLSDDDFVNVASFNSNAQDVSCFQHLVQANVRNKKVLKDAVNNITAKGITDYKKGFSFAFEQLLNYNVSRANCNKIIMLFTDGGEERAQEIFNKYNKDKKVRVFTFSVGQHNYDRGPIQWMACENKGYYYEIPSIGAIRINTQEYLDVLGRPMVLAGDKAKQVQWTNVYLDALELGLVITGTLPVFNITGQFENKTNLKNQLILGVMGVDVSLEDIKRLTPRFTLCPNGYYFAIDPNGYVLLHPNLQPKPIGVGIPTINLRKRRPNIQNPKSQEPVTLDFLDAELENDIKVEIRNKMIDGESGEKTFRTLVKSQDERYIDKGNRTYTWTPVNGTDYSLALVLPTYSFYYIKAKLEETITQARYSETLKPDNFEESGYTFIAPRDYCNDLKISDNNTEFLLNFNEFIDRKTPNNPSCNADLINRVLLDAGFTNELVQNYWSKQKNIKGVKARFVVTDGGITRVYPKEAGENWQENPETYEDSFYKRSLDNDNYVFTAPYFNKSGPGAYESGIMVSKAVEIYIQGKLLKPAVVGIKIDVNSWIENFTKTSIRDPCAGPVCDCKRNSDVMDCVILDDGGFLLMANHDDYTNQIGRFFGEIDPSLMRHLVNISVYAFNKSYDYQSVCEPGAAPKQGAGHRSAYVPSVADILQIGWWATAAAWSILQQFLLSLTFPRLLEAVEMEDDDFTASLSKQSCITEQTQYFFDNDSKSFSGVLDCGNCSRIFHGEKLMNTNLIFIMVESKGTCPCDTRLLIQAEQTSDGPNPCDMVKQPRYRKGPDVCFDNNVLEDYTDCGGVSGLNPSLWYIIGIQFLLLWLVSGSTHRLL
- Sequence (Q08289 whole entry partner): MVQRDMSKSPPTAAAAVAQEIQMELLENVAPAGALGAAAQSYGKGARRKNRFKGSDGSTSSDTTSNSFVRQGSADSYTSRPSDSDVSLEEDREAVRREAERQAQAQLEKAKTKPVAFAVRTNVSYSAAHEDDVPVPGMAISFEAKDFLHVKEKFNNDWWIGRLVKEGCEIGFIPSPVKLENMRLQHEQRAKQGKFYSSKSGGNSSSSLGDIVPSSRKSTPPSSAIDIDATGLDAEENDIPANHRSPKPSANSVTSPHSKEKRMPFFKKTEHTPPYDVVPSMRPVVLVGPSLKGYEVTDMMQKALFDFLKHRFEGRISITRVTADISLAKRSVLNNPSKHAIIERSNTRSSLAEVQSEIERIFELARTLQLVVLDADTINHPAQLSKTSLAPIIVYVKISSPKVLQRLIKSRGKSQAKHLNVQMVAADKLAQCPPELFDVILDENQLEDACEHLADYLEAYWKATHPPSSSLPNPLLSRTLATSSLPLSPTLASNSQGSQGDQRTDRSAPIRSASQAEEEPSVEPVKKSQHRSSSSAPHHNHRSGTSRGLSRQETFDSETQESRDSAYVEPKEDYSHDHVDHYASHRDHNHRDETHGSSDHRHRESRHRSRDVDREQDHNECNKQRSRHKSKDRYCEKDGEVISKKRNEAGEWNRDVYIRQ
- TEST PROTOCOL: FLIPR data, CAv1.2 channel blocking (Table 6)
- Format: cell-based
- EXPERIMENTAL CONTEXT: inactivated state, read-out: CAv1.2 IC50 Inact.
VALUE TYPE: pIC50
Would you please state pIC50, meaning minus log10 of the concentration in mol/L, as a bare number?

[
  {
    "MOLECULE": "Cn1nc(C(F)(F)F)cc1C(=O)N[C@H]1C[C@@H](CC(C)(C)S(=O)(=O)c2cccc(C(F)(F)F)c2)C1 [Compound 738]",
    "pIC50": 5.63
  }
]

Please look at this molecule and report its pIC50: CC(C)([C@H]1C[C@@H](NC(=O)c2ccc(C(F)(F)F)nc2)C1)S(=O)(=O)c1cccc(C(F)(F)F)c1 [Compound 576]
5.02

Please look at this molecule and report its pIC50: CC(C)([C@H]1C[C@H](NC(=O)c2ccc(C(F)(F)F)cn2)C1)S(=O)(=O)c1cccc(C(F)(F)F)c1 [Compound 676]
5.49

Please look at this molecule and report its pIC50: CC(C)([C@H]1C[C@@H](NS(=O)(=O)c2ccc(OC(F)(F)F)cc2)C1)S(=O)(=O)c1cc(F)cc(C(F)(F)F)c1 [Compound 603]
5.67

Please look at this molecule and report its pIC50: CC(C)([C@H]1C[C@@H](NS(=O)(=O)c2ccc(C(F)(F)F)cc2Cl)C1)S(=O)(=O)c1cccc(C(F)(F)F)c1 [Compound 627]
5.23

Please look at this molecule and report its pIC50: CC(C)([C@H]1C[C@@H](NS(=O)(=O)c2ccc(C(F)(F)F)cc2)C1)S(=O)(=O)c1cc(F)cc(C(F)(F)F)c1 [Compound 598]
5.55

Please look at this molecule and report its pIC50: CC(C)([C@H]1C[C@@H](NC(=O)c2ccc(Cl)c(F)c2)C1)S(=O)(=O)c1cccc(OC(F)(F)F)c1 [Compound 640]
5.84

Please look at this molecule and report its pIC50: CC(C)([C@H]1C[C@H](NS(=O)(=O)c2ccc(F)c(C(F)(F)F)c2)C1)S(=O)(=O)c1cc(F)cc(C(F)(F)F)c1 [Compound 608]
5.61

Please look at this molecule and report its pIC50: CC(C)([C@H]1C[C@@H](NS(=O)(=O)c2ccc(Cl)c(F)c2)C1)S(=O)(=O)c1cccc(C(F)(F)F)c1 [Compound 626]
5.27

###

- MEASUREMENT TARGET: CAv1.2 (Homo sapiens)
- TEST PROTOCOL: FLIPR data, CAv1.2 channel blocking (Table 6)
- Type: cell-based
- EXPERIMENTAL CONTEXT: closed state, read-out: CAv1.2 IC50 Closed
pIC50: −log10 of the molar value.
Recorded pIC50 by entry

Recorded pIC50, per entry:
[
  {
    "COMPOUND": "N[C@@H]1CCCC[C@H]1C(=O)NC[C@H]1C[C@H](S(=O)(=O)c2cccc(OC(F)(F)F)c2)C1",
    "MEASUREMENT TARGET": "CAv1.2 (Homo sapiens)",
    "pIC50": "≤ 5.00"
  },
  {
    "COMPOUND": "Cc1nc(S(=O)(=O)N[C@H]2C[C@@H](C(C)(C)S(=O)(=O)c3cc(F)cc(C(F)(F)F)c3)C2)cn1C",
    "MEASUREMENT TARGET": "CAv1.2 (Homo sapiens)",
    "pIC50": "≤ 5.00"
  },
  {
    "COMPOUND": "CC(C)(C[C@H]1C[C@H](NC(=O)c2ccc(OCC(F)(F)F)nc2)C1)S(=O)(=O)c1cccc(C(F)(F)F)c1",
    "MEASUREMENT TARGET": "CAv1.2 (Homo sapiens)",
    "pIC50": 5.28
  }
]

Please look at this compound and report its pIC50: CC(C)(C[C@H]1C[C@H](NC(=O)CC2(N)CCCCC2)C1)S(=O)(=O)c1cccc(C(F)(F)F)c1
≤ 5.00

Please look at this compound and report its pIC50: O=C(NC[C@H]1C[C@H](S(=O)(=O)c2cccc(OC(F)(F)F)c2)C1)c1ccc(C(F)(F)F)nc1
≤ 5.00

Please look at this compound and report its pIC50: N[C@H]1CCCCC1C(=O)NC[C@H]1C[C@H](S(=O)(=O)c2cccc(OC(F)(F)F)c2)C1 (stereo partly shown)
≤ 5.00

Please look at this compound and report its pIC50: CC(C)(C[C@H]1C[C@@H](NC(=O)c2ccc(Cl)cn2)C1)S(=O)(=O)c1cccc(C(F)(F)F)c1
5.14
